Entries annotated with measured polymerase ribozyme fitness (log ratio)
B1: TPR 5TU (parent)
chain: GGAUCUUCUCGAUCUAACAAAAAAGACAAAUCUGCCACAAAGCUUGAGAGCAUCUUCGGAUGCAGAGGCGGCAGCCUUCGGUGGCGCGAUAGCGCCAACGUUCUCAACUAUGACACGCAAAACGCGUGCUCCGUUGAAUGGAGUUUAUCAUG

Variants of: B1
METHOD NOTES: polymerase ribozyme fitness, log enrichment relative to wild type (log ratio); higher = more active; in vitro selection for triplet polymerase activity
Fewer inactive variants are shown than the library holds.
MEASURED QUANTITY: polymerase ribozyme fitness (log ratio)

>>> assay_value("A60G C93G A147G")
-4.1
>>> assay_value("A41C U45A G68A C85A C118G C129U U144C U146A")
"≤ -4.2"
>>> assay_value("U53A G92A")
-3.87
>>> assay_value("A12U C35G A60C U61A C76A G124U")
"≤ -4.2"
>>> assay_value("C35U G92U C116U")
0.616
>>> assay_value("C57A G80C A137C G143U")
"≤ -4.2"
>>> assay_value("C27A A28C C57G C76A A91C")
"≤ -4.2"
>>> assay_value("C10G A30C G92U A107G U148C A150U")
"≤ -4.2"
>>> assay_value("U9G G92A C116U C125U U134C")
"≤ -4.2"
>>> assay_value("A47U U55G")
-1.03
>>> assay_value("C10U C35U A47C C85A A89C C93U C95U")
"≤ -4.2"
